Cited source: ChEMBL document CHEMBL5096171

Protocol: Volume of distribution in Soviet Chinchilla rabbit by HPLC analysis
Format: ADME, Oryctolagus cuniculus
Experimental Parameters: in vivo
Recorded Endpoint: Vd (L/kg)
# output: bare number, implied unit L/kg

Input line: Look up Vd for this molecule: CN1/C(=C/C=C2C=C(/C=C/C3=[N+](CCCCCC(=O)NCc4cn(CCCNC(=O)[C@H](Cc5ccc(O)cc5)NC(=O)[C@H](Cc5ccccc5)NC(=O)CCC(=O)NCCCCCC(=O)N(CCCC[C@H](NC(=O)N[C@@H](CCC(=O)O)C(=O)O)C(=O)O)Cc5cccc(Cl)c5)nn4)c4ccc(S(=O)(=O)[O-])cc4C3(C)C)CCC/2)C(C)(C)c2cc(S(=O)(=O)O)ccc21
Output line: 1.49

---

Protocol: Cytotoxicity against HEK293T cells assessed as cell growth inhibition incubated for 5 days by MTT assay
Assay type: toxicity, cell-based, HEK-293T
Experimental Parameters: human, time 5 day
I'd appreciate it if you could supply CC50 at 120 h values for the items below.

Input line: Look up CC50 at 120 h for this molecule: [N-]=[N+]=NCCCNC(=O)[C@H](Cc1ccc(O)cc1)NC(=O)[C@H](Cc1ccccc1)NC(=O)CCC(=O)NCCCCCC(=O)N(CCCC[C@H](NC(=O)N[C@@H](CCC(=O)O)C(=O)O)C(=O)O)Cc1ccc(Cl)c(F)c1
Output line: > 100 µM

Input line: Try this molecule too: NCCCC[C@H](NC(=O)N[C@@H](CCC(=O)O)C(=O)O)C(=O)O
Output line: > 100 µM

Input line: Try this molecule too: [N-]=[N+]=NCCCNC(=O)[C@H](Cc1ccccc1)NC(=O)[C@H](Cc1ccccc1)NC(=O)CCC(=O)NCCCCCC(=O)N(CCCC[C@H](NC(=O)N[C@@H](CCC(=O)O)C(=O)O)C(=O)O)Cc1ccccc1
Output line: 114 µM

---

I'd appreciate it if you could supply logD values for the items below.
Protocol: n-Octanol/aqueous buffer distribution coefficient, log D of compound at pH 6.4 by shake flask method
Type: physicochemical

Input line: Look up logD for this molecule: CN1/C(=C/C=C2C=C(/C=C/C3=[N+](CCCCCC(=O)NCc4cn(CCCNC(=O)[C@H](Cc5ccc(O)cc5)NC(=O)[C@H](Cc5ccccc5)NC(=O)CCC(=O)NCCCCCC(=O)N(CCCC[C@H](NC(=O)N[C@@H](CCC(=O)O)C(=O)O)C(=O)O)Cc5cccc(Cl)c5)nn4)c4ccc(S(=O)(=O)[O-])cc4C3(C)C)CCC/2)C(C)(C)c2cc(S(=O)(=O)O)ccc21
Output line: -0.48

Input line: Try this molecule too: CN1/C(=C/C=C/C=C/C2=[N+](CCCCCC(=O)NCc3cn(CCCNC(=O)[C@H](Cc4ccc(O)cc4)NC(=O)[C@H](Cc4ccccc4)NC(=O)CCC(=O)NCCCCCC(=O)N(CCCC[C@H](NC(=O)N[C@@H](CCC(=O)O)C(=O)O)C(=O)O)Cc4cccc(Cl)c4)nn3)c3ccc(S(=O)(=O)[O-])cc3C2(C)C)C(C)(C)c2cc(S(=O)(=O)O)ccc21
Output line: -1.2

---

I'd appreciate it if you could supply CC50 at 120 h values for the items below.
Protocol: Cytotoxicity against HEK293T cells assessed as cell growth inhibition incubated for 5 days by MTT assay
Format: toxicity, cell-based, HEK-293T
Experimental Parameters: human, time 5 day

Input line: Look up CC50 at 120 h for this compound: [N-]=[N+]=NCCCNC(=O)[C@@H](Cc1ccccc1)NC(=O)[C@@H](Cc1ccccc1)NC(=O)CCC(=O)NCCCCCC(=O)N(CCCC[C@H](NC(=O)N[C@@H](CCC(=O)O)C(=O)O)C(=O)O)Cc1ccc(Cl)c(F)c1
Output line: 51 µM

Input line: Try this compound too: [N-]=[N+]=NCCCNC(=O)[C@H](Cc1ccc(O)cc1)NC(=O)[C@H](Cc1ccccc1)NC(=O)CCC(=O)NCCCCCC(=O)N(CCCC[C@H](NC(=O)N[C@@H](CCC(=O)O)C(=O)O)C(=O)O)Cc1ccc(Br)cc1
Output line: > 100 µM

Input line: Try this compound too: [N-]=[N+]=NCCCNC(=O)[C@@H](Cc1ccccc1)NC(=O)[C@@H](Cc1ccccc1)NC(=O)CCC(=O)NCCCCCC(=O)N(CCCC[C@H](NC(=O)N[C@@H](CCC(=O)O)C(=O)O)C(=O)O)Cc1ccc(Br)cc1
Output line: 88 µM

Input line: Try this compound too: [N-]=[N+]=NCCCNC(=O)[C@H](Cc1ccccc1)NC(=O)[C@H](Cc1ccccc1)NC(=O)CCC(=O)NCCCCCC(=O)N(CCCC[C@H](NC(=O)N[C@@H](CCC(=O)O)C(=O)O)C(=O)O)Cc1ccc(Cl)c(F)c1
Output line: 71 µM

Input line: Try this compound too: [N-]=[N+]=NCCCNC(=O)[C@H](Cc1ccccc1)NC(=O)[C@H](Cc1ccccc1)NC(=O)CCC(=O)NCCCCCC(=O)NCCCC[C@H](NC(=O)N[C@@H](CCC(=O)O)C(=O)O)C(=O)O
Output line: 62 µM

Input line: Try this compound too: [N-]=[N+]=NCCCNC(=O)[C@H](Cc1ccc(O)cc1)NC(=O)[C@H](Cc1ccccc1)NC(=O)CCC(=O)NCCCCCC(=O)N(CCCC[C@H](NC(=O)N[C@@H](CCC(=O)O)C(=O)O)C(=O)O)Cc1cccc(Cl)c1
Output line: > 100 µM

Input line: Try this compound too: [N-]=[N+]=NCCCNC(=O)[C@H](Cc1ccccc1)NC(=O)[C@H](Cc1ccccc1)NC(=O)CCC(=O)NCCCCCC(=O)N(CCCC[C@H](NC(=O)N[C@@H](CCC(=O)O)C(=O)O)C(=O)O)Cc1ccc(Cl)cc1F
Output line: > 100 µM

Input line: Try this compound too: [N-]=[N+]=NCCCNC(=O)[C@H](Cc1ccccc1)NC(=O)[C@H](Cc1ccccc1)NC(=O)CCC(=O)NCCCC(=O)N(CCCC[C@H](NC(=O)N[C@@H](CCC(=O)O)C(=O)O)C(=O)O)Cc1ccccc1
Output line: > 100 µM

Input line: Try this compound too: [N-]=[N+]=NCCCNC(=O)[C@H](Cc1ccccc1)NC(=O)[C@H](Cc1ccccc1)NC(=O)CCC(=O)NCCCCCC(=O)N(CCCC[C@H](NC(=O)N[C@@H](CCC(=O)O)C(=O)O)C(=O)O)Cc1ccc(Br)cc1
Output line: > 100 µM

---

Experimental Target: Glutamate carboxypeptidase 2 (Homo sapiens, UniProt Q04609)
Sequence (Q04609 whole entry): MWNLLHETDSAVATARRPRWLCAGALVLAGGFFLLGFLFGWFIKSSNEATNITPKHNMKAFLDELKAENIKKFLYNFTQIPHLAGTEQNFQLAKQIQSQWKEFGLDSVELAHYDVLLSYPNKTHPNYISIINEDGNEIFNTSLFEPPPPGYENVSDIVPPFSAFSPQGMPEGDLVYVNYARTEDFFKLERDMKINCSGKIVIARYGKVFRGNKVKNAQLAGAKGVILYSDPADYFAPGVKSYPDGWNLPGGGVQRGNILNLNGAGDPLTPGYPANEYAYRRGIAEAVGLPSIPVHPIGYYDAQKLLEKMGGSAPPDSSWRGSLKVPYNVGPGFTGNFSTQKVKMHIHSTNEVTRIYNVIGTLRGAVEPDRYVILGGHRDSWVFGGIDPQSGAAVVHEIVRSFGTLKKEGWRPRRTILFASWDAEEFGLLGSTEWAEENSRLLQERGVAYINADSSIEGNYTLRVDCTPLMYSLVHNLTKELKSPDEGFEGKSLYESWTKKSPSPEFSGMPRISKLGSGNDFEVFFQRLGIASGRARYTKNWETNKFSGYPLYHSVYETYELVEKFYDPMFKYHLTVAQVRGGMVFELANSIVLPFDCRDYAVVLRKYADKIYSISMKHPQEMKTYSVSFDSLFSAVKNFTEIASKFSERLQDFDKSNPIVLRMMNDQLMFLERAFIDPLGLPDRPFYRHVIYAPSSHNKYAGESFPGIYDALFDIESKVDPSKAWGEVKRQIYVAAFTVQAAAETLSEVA
Protocol: Inhibition of PSMA derived from human LNCaP cell lysate assessed as inhibition of NAAG hydrolysis incubated for 2 hrs in presence of NAAG by Amplex Red assay
I'd appreciate it if you could supply IC50 values for the items below.
# output: bare number, implied unit nM

Input line: Look up IC50 for this compound: [N-]=[N+]=NCCCNC(=O)[C@H](Cc1ccccc1)NC(=O)[C@H](Cc1ccccc1)NC(=O)CCC(=O)NCCCC(=O)N(CCCC[C@H](NC(=O)N[C@@H](CCC(=O)O)C(=O)O)C(=O)O)Cc1ccccc1
Output line: 175

Input line: Try this compound too: [N-]=[N+]=NCCCNC(=O)[C@H](Cc1ccc(O)cc1)NC(=O)[C@H](Cc1ccccc1)NC(=O)CCC(=O)NCCCCCC(=O)N(CCCC[C@H](NC(=O)N[C@@H](CCC(=O)O)C(=O)O)C(=O)O)Cc1ccc(Br)cc1
Output line: 17

Input line: Try this compound too: [N-]=[N+]=NCCCNC(=O)[C@@H](Cc1ccccc1)NC(=O)[C@@H](Cc1ccccc1)NC(=O)CCC(=O)NCCCCCC(=O)N(CCCC[C@H](NC(=O)N[C@@H](CCC(=O)O)C(=O)O)C(=O)O)Cc1ccc(Cl)cc1
Output line: 226

---

Protocol: Clearance in Soviet Chinchilla rabbit by HPLC analysis
Type: ADME, Oryctolagus cuniculus
Experimental Parameters: in vivo
Recorded Endpoint: clearance (mL/min/kg)
# output: bare number, implied unit mL/min/kg

Input line: Look up clearance for this molecule: CN1/C(=C/C=C2C=C(/C=C/C3=[N+](CCCCCC(=O)NCc4cn(CCCNC(=O)[C@H](Cc5ccc(O)cc5)NC(=O)[C@H](Cc5ccccc5)NC(=O)CCC(=O)NCCCCCC(=O)N(CCCC[C@H](NC(=O)N[C@@H](CCC(=O)O)C(=O)O)C(=O)O)Cc5cccc(Cl)c5)nn4)c4ccc(S(=O)(=O)[O-])cc4C3(C)C)CCC/2)C(C)(C)c2cc(S(=O)(=O)O)ccc21
Output line: 14

---

System: PC-3
Protocol: Cytotoxicity against human PC-3 cells assessed as reduction in cell viability incubated for 5 days by MTT assay
Type: functional
Experimental Parameters: PC-3, 120 h, time 5 day
Recorded Endpoint: CC50

Input line: Look up CC50 for this molecule: CN1/C(=C/C=C2C=C(/C=C/C3=[N+](CCCCCC(=O)NCc4cn(CCCNC(=O)[C@H](Cc5ccc(O)cc5)NC(=O)[C@H](Cc5ccccc5)NC(=O)CCC(=O)NCCCCCC(=O)N(CCCC[C@H](NC(=O)N[C@@H](CCC(=O)O)C(=O)O)C(=O)O)Cc5cccc(Cl)c5)nn4)c4ccc(S(=O)(=O)[O-])cc4C3(C)C)CCC/2)C(C)(C)c2cc(S(=O)(=O)O)ccc21
Output line: 18.7 µM

Input line: Try this molecule too: CN1/C(=C/C=C/C=C/C2=[N+](CCCCCC(=O)NCc3cn(CCCNC(=O)[C@H](Cc4ccc(O)cc4)NC(=O)[C@H](Cc4ccccc4)NC(=O)CCC(=O)NCCCCCC(=O)N(CCCC[C@H](NC(=O)N[C@@H](CCC(=O)O)C(=O)O)C(=O)O)Cc4cccc(Cl)c4)nn3)c3ccc(S(=O)(=O)[O-])cc3C2(C)C)C(C)(C)c2cc(S(=O)(=O)O)ccc21
Output line: > 100 µM

Input line: Try this molecule too: CN1/C(=C/C=C/C=C/C2=[N+](CCCCCC(=O)O)c3ccc(S(=O)(=O)[O-])cc3C2(C)C)C(C)(C)c2cc(S(=O)(=O)O)ccc21
Output line: > 100 µM

Input line: Try this molecule too: CN1/C(=C/C=C2C=C(/C=C/C3=[N+](CCCCCC(=O)O)c4ccc(S(=O)(=O)[O-])cc4C3(C)C)CCC/2)C(C)(C)c2cc(S(=O)(=O)O)ccc21
Output line: > 100 µM
